Below, each entry is listed with its recorded pKd.
biological target: HLA-B*07:02; assay: IEDB peptide-MHC binding, purified MHC/direct/fluorescence; filed as Kd, often an IC50 or EC50 that approximates it; bounds were set here for any values at or beyond the usual limits of such assays; conditions: source organism: Escherichia coli O157:H7
pKd: −log10 of the molar value.
Measurement Kind: pKd

   biopolymer_sequence  result_value
0            KTTIKFHPW        ≤ 4.70
1            LQLTAVFAY        ≤ 4.70
2            LDKGKLWHL        ≤ 4.70

----------
target: HLA-B*57:01; assay: IEDB peptide-MHC binding, purified MHC/competitive/fluorescence; filed as Kd, often an IC50 or EC50 that approximates it; bounds were set here for any values at or beyond the usual limits of such assays; settings: source organism: Bacillus anthracis str. A0488
pKd: −log10 of the molar value.
Measurement Kind: pKd

>>> print(df.to_string())
   biopolymer_sequence  result_value
0            MFKNFPFFK        ≤ 4.70

----------
molecular target: HLA-A*03:01; assay: IEDB peptide-MHC binding, purified MHC/direct/fluorescence; filed as Kd, often an IC50 or EC50 that approximates it; bounds were set here for any values at or beyond the usual limits of such assays; details: source organism: Entamoeba histolytica HM-1:IMSS
pKd: −log10 of the molar value.
Measurement Kind: pKd

   biopolymer_sequence  result_value
0            VKINIFPLY        ≤ 4.70

----------
molecular target: HLA-B*15:02; assay: IEDB peptide-MHC binding, purified MHC/direct/fluorescence; filed as Kd, often an IC50 or EC50 that approximates it; bounds were set here for any values at or beyond the usual limits of such assays; conditions: source organism: dengue virus type 4
Measurement Kind: Kd (nM)

>>> print(df.to_string())
   biopolymer_sequence  measurement_units  result_value
0            YLAGAGLAF                 nM             3

----------
target: HLA-B*46:01; assay: IEDB peptide-MHC binding, purified MHC/direct/fluorescence; filed as Kd, often an IC50 or EC50 that approximates it; bounds were set here for any values at or beyond the usual limits of such assays; details: source organism: Entamoeba histolytica HM-1:IMSS
pKd: −log10 of the molar value.
Measurement Kind: pKd

In [3]: df
Out[3]:
   biopolymer_sequence  measurement_kind  result_value
0            VKINIFPLY               pKd        ≤ 4.70

----------
Below, each entry is listed with its recorded Kd.
molecular target: HLA-A*30:02; assay: IEDB peptide-MHC binding, purified MHC/competitive/radioactivity; filed as Kd, often an IC50 or EC50 that approximates it; bounds were set here for any values at or beyond the usual limits of such assays; conditions: source organism: Dengue virus 4 Philippines/H241/1956
Measurement Kind: Kd (nM)

In [3]: df
Out[3]:
   biopolymer_sequence  measurement_units  result_value
0           AWNFLEVEDY                 nM          85.3
1           VAGGLLLAAY                 nM          78.7

----------
biological target: HLA-B*15:02; assay: IEDB peptide-MHC binding, purified MHC/direct/fluorescence; filed as Kd, often an IC50 or EC50 that approximates it; bounds were set here for any values at or beyond the usual limits of such assays; conditions: source organism: Vibrio vulnificus CMCP6
Measurement Kind: Kd (nM)

   biopolymer_sequence  assay_target  measurement_kind  result_value
0            YQRALHTSI   HLA-B*15:02                Kd           306

----------
target: HLA-A*03:01; test: IEDB peptide-MHC binding, purified MHC/direct/fluorescence; filed as Kd, often an IC50 or EC50 that approximates it; bounds were set here for any values at or beyond the usual limits of such assays; settings: source organism: Brucella suis 1330
pKd: −log10 of the molar value.
Measurement Kind: pKd

In [3]: df
Out[3]:
   biopolymer_sequence  result_value
0            ETVWPFFYA        ≤ 4.70

----------
molecular target: HLA-A*03:01; assay: IEDB peptide-MHC binding, purified MHC/direct/fluorescence; filed as Kd, often an IC50 or EC50 that approximates it; bounds were set here for any values at or beyond the usual limits of such assays; conditions: source organism: Burkholderia mallei
Below, each entry is listed with its recorded Kd.
Measurement Kind: Kd

>>> df
   biopolymer_sequence  measurement_kind  result_value
0            AVAVARVAA                Kd       ≥ 20 µM
1            APAKKAAAK                Kd       ≥ 20 µM

----------
target: HLA-A*69:01; assay: IEDB peptide-MHC binding, purified MHC/direct/fluorescence; filed as Kd, often an IC50 or EC50 that approximates it; bounds were set here for any values at or beyond the usual limits of such assays; details: source organism: West Nile virus
pKd: −log10 of the molar value.
Measurement Kind: pKd

In [3]: df
Out[3]:
   biopolymer_sequence  assay_target  result_value
0            LVKTESWIL   HLA-A*69:01        ≤ 4.70
1            AHYEEDVNL   HLA-A*69:01        ≤ 4.70

----------
biological target: HLA-A*02:03; assay: IEDB peptide-MHC binding, purified MHC/competitive/radioactivity; filed as Kd, often an IC50 or EC50 that approximates it; bounds were set here for any values at or beyond the usual limits of such assays; settings: source organism: Dengue virus 4 Philippines/H241/1956
Below, each entry is listed with its recorded Kd.
Measurement Kind: Kd (nM)

>>> df
   biopolymer_sequence  result_value
0            GLSSRATWA          36.9
1           ALLGAMTAGI          58.8
2            WLSYKVASA          12.3

----------
biological target: HLA-B*40:01; assay: IEDB peptide-MHC binding, purified MHC/direct/fluorescence; filed as Kd, often an IC50 or EC50 that approximates it; bounds were set here for any values at or beyond the usual limits of such assays; conditions: source organism: West Nile virus
Below, each entry is listed with its recorded Kd.
Measurement Kind: Kd

   biopolymer_sequence  assay_target  result_value
0            EERKNFLEL   HLA-B*40:01       ≥ 20 µM
1            YTMDGEYRL   HLA-B*40:01       ≥ 20 µM
2            LVKTESWIL   HLA-B*40:01       ≥ 20 µM
3            MEEPAPAGF   HLA-B*40:01       2.57 µM
4            AHYEEDVNL   HLA-B*40:01       ≥ 20 µM

----------
target: HLA-B*51:01; test: IEDB peptide-MHC binding, purified MHC/direct/fluorescence; filed as Kd, often an IC50 or EC50 that approximates it; bounds were set here for any values at or beyond the usual limits of such assays; settings: source organism: Brucella suis 1330
Measurement Kind: Kd

   biopolymer_sequence  assay_target  measurement_kind  result_value
0            ETVWPFFYA   HLA-B*51:01                Kd       ≥ 20 µM

----------
target: HLA-A*02:12; experiment: IEDB peptide-MHC binding, purified MHC/direct/fluorescence; filed as Kd, often an IC50 or EC50 that approximates it; bounds were set here for any values at or beyond the usual limits of such assays; conditions: source organism: Rickettsia bellii RML369-C
Measurement Kind: Kd

>>> print(df.to_string())
   biopolymer_sequence  result_value
0            NPLEIYQEI       ≥ 20 µM

----------
biological target: HLA-A*30:02; test: IEDB peptide-MHC binding, purified MHC/competitive/radioactivity; filed as Kd, often an IC50 or EC50 that approximates it; bounds were set here for any values at or beyond the usual limits of such assays; conditions: source organism: Lymphocytic choriomeningitis virus (strain Armstrong)
Measurement Kind: Kd (nM)

In [3]: df
Out[3]:
   biopolymer_sequence  measurement_units  result_value
0            NANAYSGKY                 nM          2.71

----------
target: HLA-B*58:01; experiment: IEDB peptide-MHC binding, purified MHC/direct/fluorescence; filed as Kd, often an IC50 or EC50 that approximates it; bounds were set here for any values at or beyond the usual limits of such assays; details: source organism: Marburg virus - Musoke, Kenya, 1980
Below, each entry is listed with its recorded Kd.
Measurement Kind: Kd

>>> df
   biopolymer_sequence  result_value
0            ARHGEYAPF       ≥ 20 µM
1            NQQVTNSKY       ≥ 20 µM
2            RVIGYILFF       2.04 µM
3            YGVKNLFDW        ≥ 5 µM
